This section presents compounds with their documented % Change in Impurity B values.
experiment: Chemical stability of salt forms (change in purity by HPLC upon storage); type: physicochemical; conditions: 40° C. and 75% relative humidity, 7 days, HPLC Method D

compound	% Change in Impurity B
COc1ccncc1CN1CCC(N(CCCCCCCN2CC[C@@H](C(C(N)=O)(c3ccccc3)c3ccccc3)C2)C(C)C)CC1.CS(=O)(=O)O.CS(=O)(=O)O [Example 9]	<0.1%
COc1ccncc1CN1CCC(N(CCCCCCCN2CC[C@@H](C(C(N)=O)(c3ccccc3)c3ccccc3)C2)C(C)C)CC1.O=S(=O)(O)c1cccc2c(S(=O)(=O)O)cccc12 [Example 7]	<0.1%
COc1ccncc1CN1CCC(N(CCCCCCCN2CC[C@@H](C(C(N)=O)(c3ccccc3)c3ccccc3)C2)C(C)C)CC1 [Example 6]	<0.1%
